Reference source for all entries: patent US20120270929A1

ALT levels by entry:
test: Liver function: plasma transaminases (ALT, AST) in C57BL/6 mice
Type: in vivo, mouse
measurement_context: Week 0 (before treatment), 50 mg/kg/week
Oligonucleotides are written 5' to 3', each unit as a sugar letter and its base; * is a phosphorothioate linkage, no mark a phosphodiester; rarer units and linkages stand in square brackets, end groups in braces. Plain capitals give the bases only. e = 2'-O-(2-methoxyethyl) (MOE); [5mC] = 5-methylcytosine; d = 2'-deoxy (DNA)

The cases that follow already have their ALT levels on record.
>>> result("GCAGCTCGATTCGGGCATGA (antisense eG*e[5mC]*eA*eG*e[5mC]*dT*d[5mC]*dG*dA*dT*dT*d[5mC]*dG*dG*dG*e[5mC]*eA*eT*eG*eA) [ISIS 447118]")
"29 IU/L"
>>> result("CGGATGATTCTTGCTGGTAA (antisense e[5mC]*eG*eG*eA*eT*dG*dA*dT*dT*d[5mC]*dT*dT*dG*d[5mC]*dT*eG*eG*eT*eA*eA) [ISIS 447114]")
"46 IU/L"
>>> result("TATTTCTATAGCTCATGACA (antisense eT*eA*eT*eT*eT*d[5mC]*dT*dA*dT*dA*dG*d[5mC]*dT*d[5mC]*dA*eT*eG*eA*e[5mC]*eA) [ISIS 447144]")
"28 IU/L"

Pending sequence:
Query: Determine from records and report ALT levels for GCCACCAGTGCCTGCTGAGC (antisense eG*e[5mC]*e[5mC]*eA*e[5mC]*d[5mC]*dA*dG*dT*dG*d[5mC]*d[5mC]*dT*dG*d[5mC]*eT*eG*eA*eG*e[5mC]) [ISIS 447143]
Result: 32 IU/L
